Cited source: patent US10508120B2

Known pIC50 of a selection of molecules
ASSAYED_SYSTEM: JAK2/JAK2 homdimeric complex (Homo sapiens (Human))
Sequence (O60674 whole entry): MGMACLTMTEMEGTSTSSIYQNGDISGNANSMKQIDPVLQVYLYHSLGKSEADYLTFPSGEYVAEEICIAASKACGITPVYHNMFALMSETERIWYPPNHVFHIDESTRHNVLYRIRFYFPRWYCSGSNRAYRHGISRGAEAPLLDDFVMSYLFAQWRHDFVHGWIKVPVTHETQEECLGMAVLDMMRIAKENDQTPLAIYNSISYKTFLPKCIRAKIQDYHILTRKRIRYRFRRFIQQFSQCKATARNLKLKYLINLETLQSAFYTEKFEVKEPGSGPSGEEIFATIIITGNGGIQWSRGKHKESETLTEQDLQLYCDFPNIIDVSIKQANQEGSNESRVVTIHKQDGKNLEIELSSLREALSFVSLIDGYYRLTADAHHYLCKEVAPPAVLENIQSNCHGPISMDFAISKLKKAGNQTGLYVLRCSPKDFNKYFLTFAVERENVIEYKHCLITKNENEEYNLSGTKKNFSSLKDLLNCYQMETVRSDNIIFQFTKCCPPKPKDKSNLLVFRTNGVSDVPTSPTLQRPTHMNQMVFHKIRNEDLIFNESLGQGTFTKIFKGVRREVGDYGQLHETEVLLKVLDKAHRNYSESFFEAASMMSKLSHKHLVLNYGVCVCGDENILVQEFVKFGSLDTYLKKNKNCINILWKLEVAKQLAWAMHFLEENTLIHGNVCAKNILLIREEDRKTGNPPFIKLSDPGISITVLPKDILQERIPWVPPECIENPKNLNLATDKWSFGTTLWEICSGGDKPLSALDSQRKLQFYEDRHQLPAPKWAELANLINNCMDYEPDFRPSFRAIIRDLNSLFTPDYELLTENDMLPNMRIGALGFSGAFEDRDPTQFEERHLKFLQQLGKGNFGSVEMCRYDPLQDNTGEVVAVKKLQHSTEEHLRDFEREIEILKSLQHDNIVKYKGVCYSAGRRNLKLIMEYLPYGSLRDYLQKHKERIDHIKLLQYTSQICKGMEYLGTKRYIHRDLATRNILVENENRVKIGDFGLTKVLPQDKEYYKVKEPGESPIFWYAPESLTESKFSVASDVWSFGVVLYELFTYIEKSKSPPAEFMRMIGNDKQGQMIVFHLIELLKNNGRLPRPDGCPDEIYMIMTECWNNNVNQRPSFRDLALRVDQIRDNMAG
Sequence (P32927 17-897 partner): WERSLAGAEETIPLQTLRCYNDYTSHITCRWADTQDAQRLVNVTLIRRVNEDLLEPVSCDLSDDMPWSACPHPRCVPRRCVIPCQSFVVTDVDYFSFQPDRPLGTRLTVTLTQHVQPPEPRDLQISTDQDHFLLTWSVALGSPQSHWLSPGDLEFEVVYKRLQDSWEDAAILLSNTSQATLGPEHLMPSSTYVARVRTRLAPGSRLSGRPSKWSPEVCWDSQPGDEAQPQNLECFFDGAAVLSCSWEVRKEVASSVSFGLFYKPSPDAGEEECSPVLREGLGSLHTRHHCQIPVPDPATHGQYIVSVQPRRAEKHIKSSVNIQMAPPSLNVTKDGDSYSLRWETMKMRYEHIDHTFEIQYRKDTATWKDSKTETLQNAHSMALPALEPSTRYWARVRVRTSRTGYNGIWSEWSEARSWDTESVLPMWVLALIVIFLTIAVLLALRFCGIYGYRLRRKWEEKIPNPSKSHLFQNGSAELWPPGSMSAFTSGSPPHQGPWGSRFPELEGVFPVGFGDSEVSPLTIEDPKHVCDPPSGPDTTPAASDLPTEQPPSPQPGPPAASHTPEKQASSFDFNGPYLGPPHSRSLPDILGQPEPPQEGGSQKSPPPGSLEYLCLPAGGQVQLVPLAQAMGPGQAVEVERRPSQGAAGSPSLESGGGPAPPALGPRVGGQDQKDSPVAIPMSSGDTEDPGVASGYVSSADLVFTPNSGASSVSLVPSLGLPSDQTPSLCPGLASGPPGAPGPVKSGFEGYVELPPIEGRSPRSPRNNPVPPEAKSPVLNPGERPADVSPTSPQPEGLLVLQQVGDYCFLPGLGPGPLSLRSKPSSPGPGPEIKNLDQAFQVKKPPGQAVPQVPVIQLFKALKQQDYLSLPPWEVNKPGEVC
EXPERIMENT_DESCRIPTION: GM-CSF Induced pSTAT5 in Human PBMC
CONDITION_DESCRIPTION: GM-CSF 5 ng/mL for 20 minutes, pSTAT5 by MSD, read-out: PBMC_GMCSF_pSTAT5 IC50
pIC50: −log10 of the molar value.
READOUT_TYPE: pIC50

CNc1cc(Nc2cccn(-c3cc(C)n(C)n3)c2=O)nc2c(C(=O)NC3CCC3)cnn12 [I-136]    < 5.60
CNc1cc(Nc2cc(C)cn(-c3cnn(C)c3)c2=O)nc2c(C(N)=O)cnn12 [I-31]    < 6.52
CNc1cc(Nc2cccn3cnnc23)nc2c(C(=O)N[C@H]3CC[C@@H]3OC)cnn12 [I-1102]    < 5.60
CNc1cc(Nc2cccc(-c3cnn(C)c3)c2Cl)nc2c(C(N)=O)cnn12 [I-17]    < 5.60
CNc1cc(Nc2cccn([C@@H]3CCC[C@H](OC)C3)c2=O)nc2c(C(=O)N[C@@H]3C[C@@H]3F)cnn12 [I-840]    < 4.30
CNc1cc(Nc2cccn(-c3ccc(F)cn3)c2=O)nc2c(C(=O)N[C@@H]3CC[C@H]3OC)cnn12 [I-817]    < 5.60
CNc1cc(Nc2cccc(N3CCC34COC4)n2)nc2c(C(=O)N[C@H]3C[C@H]3F)cnn12 [I-709]    < 4.30
CNc1cc(Nc2cccn([C@H]3CC[C@H](OC)CC3)c2=O)nc2c(C(=O)NCC3(CO)CC3)cnn12 [I-545]    < 5.60
CNc1cc(-c2cn(C(C)C)c3ncccc23)nc2c(C(=O)N[C@@H]3C[C@@H]3F)cnn12 (stereo in doubt) [I-225]    < 4.30
CNc1cc(Nc2cccn(-c3cccc(C(C)(C)O)n3)c2=O)nc2c(C(=O)NC3CCC3)cnn12 [I-156]    < 4.90
CNc1cc(Nc2cccn(-c3ccn(C)n3)c2=O)nc2c(C(=O)NC3CCC3)cnn12 [I-139]    < 4.30
CNc1cc(Nc2cc(C)cnc2OC2CC2)nc2c(C(=O)NC3CC3)cnn12 [I-277]    < 4.30
CNc1cc(Nc2cc(Cl)cn(-c3ccc(C4CC4)nn3)c2=O)nc2c(C(=O)N[C@H]3C[C@H]3F)cnn12 [I-334]    < 4.30
CNc1cc(Nc2cccn([C@@H]3CCC[C@@H](O)C3)c2=O)nc2c(C(=O)N[C@@H]3C[C@@H]3F)cnn12 [I-1029]    < 5.60
CNc1cc(Nc2cccc(N3CCO[C@]4(CCOC4)C3)n2)nc2c(C(=O)NC3CC3)cnn12 [I-827]    < 4.30
CNc1cc(Nc2cccn([C@H]3CCN(CCF)C3)c2=O)nc2c(C(=O)N[C@H]3CC[C@@H]3OC)cnn12 [I-1050]    < 4.30

----------
ASSAYED_SYSTEM: JAK2/JAK2 homdimeric complex (Homo sapiens (Human))
EXPERIMENT_DESCRIPTION: GM-CSF Induced pSTAT5 in Human PBMC
CONDITION_DESCRIPTION: GM-CSF 5 ng/mL for 20 minutes, pSTAT5 by MSD, read-out: PBMC_GMCSF_pSTAT5 IC50
READOUT_TYPE: IC50

CNc1cc(Nc2cccn(-c3ccc(F)cc3)c2=O)nc2c(C(=O)NC3CC3)cnn12    > 2.5 µM
CNc1cc(Nc2cccn(-c3ccccc3F)c2=O)nc2c(C(=O)N[C@H]3CC[C@H]3O)cnn12    > 2.5 µM
CNc1cc(Nc2cc(Cl)cn(C3CCN(C)CC3)c2=O)nc2c(C(=O)N[C@@H]3C[C@@H]3F)cnn12    > 12.5 µM
CNc1cc(Nc2cccn(C3CCC[C@H](OC)C3)c2=O)nc2c(C(=O)NCC(C)(C)CO)cnn12 (some centres unmarked)    > 50 µM
CNc1cc(Nc2cccn([C@@H]3CCC[C@@H](OC)C3)c2=O)nc2c(C(=O)N[C@H]3CC[C@@H]3OC)cnn12    > 50 µM
CNc1cc(Nc2cccn([C@H]3CCC[C@H](OC)C3)c2=O)nc2c(C(=O)N[C@@H]3CC3F)cnn12 (some centres unmarked)    > 2.5 µM
CNc1cc(Nc2cccn3ccnc23)nc2c(C(=O)NC3CC3)cnn12    > 50 µM
CNc1cc(-c2cn(CCN3CCCCC3)c3ncccc23)nc2c(C(=O)N[C@@H]3CC[C@H]3O)cnn12    > 12.5 µM
CNc1cc(Nc2cccnc2OC)nc2c(C(=O)NO)cnn12    > 50 µM
CNc1cc(Nc2cccn(-c3cnn(C)c3)c2=O)nc2c(C(=O)NC3CC3)cnn12    > 50 µM
CNc1cc(Nc2cccn(-c3cc(C)on3)c2=O)nc2c(C(=O)N[C@H]3C[C@H]3F)cnn12    > 12.5 µM
CNc1cc(Nc2cccn(-c3ccc(C)nn3)c2=O)nc2c(C(=O)NC3CCC3)cnn12    > 50 µM
CNc1cc(Nc2cccn(-c3ccc(F)cn3)c2=O)nc2c(C(=O)N[C@H]3C[C@H]3F)cnn12    > 12.5 µM
CNc1cc(Nc2cccn([C@H]3CC[C@H](OC)CC3)c2=O)nc2c(C(=O)NC[C@H](C)CO)cnn12    > 50 µM
CNc1cc(Nc2cccn(-c3cccnc3)c2=O)nc2c(C(=O)N[C@H]3CC[C@@H]3OC)cnn12    > 50 µM
CNc1cc(Nc2cccn(-c3ccccn3)c2=O)nc2c(C(=O)N[C@@H]3CC[C@H]3OC)cnn12 [I-908]    > 50 µM
CNc1cc(Nc2cccn(C3CC4(COC4)C3)c2=O)nc2c(C(=O)N[C@@H]3C[C@@H]3F)cnn12    > 2.5 µM

----------
ASSAYED_SYSTEM: Tyk2 kinase domain (DH1) (Homo sapiens (Human))
Sequence (P29597 897-1176): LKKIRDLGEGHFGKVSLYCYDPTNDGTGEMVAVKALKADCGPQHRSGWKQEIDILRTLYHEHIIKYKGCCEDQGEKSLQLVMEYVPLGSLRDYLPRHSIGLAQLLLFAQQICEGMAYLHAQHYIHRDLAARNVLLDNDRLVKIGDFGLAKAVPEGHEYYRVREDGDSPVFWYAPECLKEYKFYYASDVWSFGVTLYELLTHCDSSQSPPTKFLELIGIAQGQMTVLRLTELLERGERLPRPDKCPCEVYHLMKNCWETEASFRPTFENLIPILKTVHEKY
EXPERIMENT_DESCRIPTION: Tyk2 Radioactive Kinase Assay
Assay type: biochemical
CONDITION_DESCRIPTION: compound at 10 μM; ATP 10 μM; read-out: Tyk2 JH1% Inhibition @ 10 μM
Entries annotated with measured inhibition at 10 µM
READOUT_TYPE: inhibition at 10 µM

CNc1cc(Nc2cc(C)cnc2OC2CC2)nc2c(C(=O)NC3CC3)cnn12    < 50%
NC(=O)c1cnn2c(N)cc(Nc3cc(Cl)cnc3OC3CCC3)nc12    < 50%
CNc1cc(Nc2cccn(-c3cnc(C)o3)c2=O)nc2c(C(=O)N[C@H]3C[C@H]3F)cnn12    < 50%
CNc1cc(-c2cn(C(C)C)c3ncccc23)nc2c(C(=O)N[C@@H]3CC[C@@H]3O)cnn12    < 50%
CNc1cc(Nc2cccnc2OC)nc2c(C(=O)N[C@@H]3CC[C@@H](O)C3)cnn12    < 50%
[2H]C([2H])([2H])Oc1ncccc1Nc1cc(NC)n2ncc(C(=O)N[C@H]3CCC[C@H](O)C3)c2n1    < 50%
CNc1cc(-c2cn(CCN3CCN(C)CC3)c3ncccc23)nc2c(C(=O)N[C@H]3C[C@H]3F)cnn12    < 50%
CNc1cc(Nc2cccnc2OC(C)C)nc2c(C(=O)NC3CCC3)cnn12    < 50%

----------
IC50 values by entry
ASSAYED_SYSTEM: JAK2/JAK2 homdimeric complex (Homo sapiens (Human))
EXPERIMENT_DESCRIPTION: GM-CSF Induced pSTAT5 in Human PBMC
CONDITION_DESCRIPTION: GM-CSF 5 ng/mL for 20 minutes, pSTAT5 by MSD, read-out: PBMC_GMCSF_pSTAT5 IC50
READOUT_TYPE: IC50

CNc1cc(Nc2cccn(-c3ccccc3F)c2=O)nc2c(C(=O)N[C@H]3CC[C@@H]3O)cnn12    > 50 µM
CNc1cc(Nc2cccn(C3CCN(CC(F)F)CC3)c2=O)nc2c(C(=O)NC3CCC3)cnn12    > 12.5 µM
CNc1cc(Nc2cc(F)cn(-c3ccc(C)nn3)c2=O)nc2c(C(=O)N[C@H]3C[C@H]3F)cnn12    > 2.5 µM
CNc1cc(Nc2cccn(-c3ccccn3)c2=O)nc2c(C(=O)N[C@H]3CC[C@H]3O)cnn12    > 12.5 µM
CNc1cc(Nc2cccn(-c3ccc(OC)cn3)c2=O)nc2c(C(=O)NC3CCC3)cnn12    > 12.5 µM
CNc1cc(Nc2cccc3ocnc23)nc2c(C(=O)NC3CC3)cnn12    > 12.5 µM
CNc1cc(Nc2cc(Cl)cn(-c3ccc(C4CC4)nn3)c2=O)nc2c(C(=O)NC3CC3)cnn12    > 12.5 µM
CNc1cc(Nc2cccn([C@H]3CC[C@H](OC)CC3)c2=O)nc2c(C(=O)N[C@@H]3CC[C@@H]3O)cnn12    > 2.5 µM
CNc1cc(Nc2cccc(-c3cn(C)nc3F)n2)nc2c(C(=O)N[C@@H]3C[C@@H]3F)cnn12    > 50 µM
CNc1cc(Nc2cc(Cl)cn(-c3ccn(C)n3)c2=O)nc2c(C(=O)N[C@H]3C[C@H]3F)cnn12    > 12.5 µM
CNc1cc(Nc2cccn([C@H]3CC[C@H](OC)CC3)c2=O)nc2c(C(=O)N[C@H]3CC[C@@H]3OC)cnn12    > 50 µM
CNc1cc(Nc2cccnc2OC2CC2)nc2c(C(=O)NCC3(CO)CC3)cnn12    > 50 µM
CNc1cc(Nc2cccn(-c3ncc(C)s3)c2=O)nc2c(C(=O)N[C@@H]3CC[C@H]3O)cnn12    > 12.5 µM
CNc1cc(Nc2cccn([C@H]3CC[C@H](OC)CC3)c2=O)nc2c(C(=O)NCC(C)(C)CO)cnn12    > 2.5 µM
CNc1cc(Nc2cc(C)cnc2OCCOC)nc2c(C(=O)NC3CCC3)cnn12    > 2.5 µM
[2H]C([2H])([2H])Oc1ncccc1Nc1cc(NC)n2ncc(C(=O)N[C@H]3C[C@H](O)C3)c2n1    > 2.5 µM
CNc1cc(Nc2cccc(N3CCCC3=O)n2)nc2c(C(N)=O)cnn12    > 0.3 µM
CNc1cc(Nc2cccn([C@H]3CCC[C@H](O)C3)c2=O)nc2c(C(=O)N[C@H]3CC[C@@H]3OC)cnn12    > 50 µM
CNc1cc(Nc2cccn([C@H]3CC[C@](C)(OC)CC3)c2=O)nc2c(C(=O)N[C@H]3CC[C@@H]3OC)cnn12    > 50 µM
CNc1cc(Nc2cccn(C3CCC4(CC3)OCCO4)c2=O)nc2c(C(=O)NC3CC3)cnn12    > 12.5 µM
CNc1cc(Nc2cccnc2OC2CC2)nc2c(C(=O)N[C@H]3CC[C@@H]3O)cnn12    > 50 µM
[2H]C([2H])([2H])Oc1ncc(F)cc1Nc1cc(NC)n2ncc(C(=O)NC3CC3)c2n1    > 12.5 µM
CNc1cc(Nc2cccn([C@H]3CCC[C@H]3O)c2=O)nc2c(C(=O)N[C@H]3CC[C@@H]3OC)cnn12    > 50 µM
CNc1cc(-c2cn(C3CCOCC3)c3ncccc23)nc2c(C(=O)NC3CCC3O)cnn12 (centres unmarked)    > 2.5 µM
[2H]C([2H])([2H])Oc1ncc(C)cc1Nc1cc(NC)n2ncc(C(=O)N[C@H]3C[C@H]3F)c2n1    > 12.5 µM
CNc1cc(Nc2cccnc2OC2CC2)nc2c(C(=O)N[C@H]3COC[C@H]3O)cnn12    > 50 µM
[2H]C([2H])([2H])Nc1cc(Nc2cccnc2OC2CC2)nc2c(C(=O)N[C@@H]3C[C@@H]3F)cnn12 (stereo in doubt)    > 50 µM
CNc1cc(-c2cn(C(C)C)c3ncccc23)nc2c(C(=O)N[C@H]3CC[C@H]3O)cnn12    > 12.5 µM
CNc1cc(Nc2cccnc2OC)nc2c(C(=O)NCC3(CO)CC3)cnn12    > 50 µM
[2H]C([2H])([2H])Oc1ncc(C)cc1Nc1cc(NC)n2ncc(C(=O)NC3CC3)c2n1    > 50 µM
CNc1cc(Nc2cc(F)cn(-c3cnn(C)c3)c2=O)nc2c(C(=O)N[C@H]3C[C@H]3F)cnn12    > 12.5 µM
CNc1cc(Nc2cccc(C3CCCOC3)n2)nc2c(C(=O)N[C@@H]3C[C@@H]3F)cnn12 (some centres unmarked)    > 50 µM
